- SYSTEM_UNDER_TEST: SIX1 homeodomain (reference allele) (human, UniProt Q15475 108-198)
- Sequence: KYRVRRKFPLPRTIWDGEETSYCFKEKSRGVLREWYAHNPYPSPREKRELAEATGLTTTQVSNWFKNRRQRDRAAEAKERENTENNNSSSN
- PROTOCOL_TEXT: universal protein binding microarray; Universal all-10-mer PBM (8x60K, AMADID 030236), 300 nM GST-tagged protein, Alexa Fluor 488 anti-GST; buffer, salt, pH and temperature not stated (as in Berger); high values mean tight binding
- EXPERIMENTAL_PARAMETERS: protein: ivt; tags: N-terminal GST; dsDNA, one strand shown
Whole data set: some 33,000 sequences, median “e-score” near -0.053, cut for the highest 2% near 0.38. Only a selection was taken, and the highest values are over-represented in it overall.
Threshold 0.2 E-score: binding signal strictly smaller gives rule met, otherwise rule not met.

GGAATACC
rule not met

hey, is binding signal for CGATCCCG lower than 0.2 E-score or not?
rule not met

Cool, now CAGATCCC
rule not met

Try the sequence AGATACCA
rule not met

Now consider CGGATCTC and answer again.
rule not met

Can you handle AGGATCCC next?
rule not met

Field entry: ACACGGTA
rule met

And the next one, GGATCCCA ?
rule not met

Next record, please: AGATACCT
rule not met

Next sequence up: GGGTATGA
rule not met

Further, for ACGATTAA ?
rule met

Entry AAGATCCT please
rule not met

Subsequent entry: AGATCCCC
rule not met

Also ATCTATCG , if possible.
rule not met

Now give it for TCCCCTCA too.
rule met

Repeat with GATAATGA
rule met

Field entry: AGGTATGG
rule met

Next: GGTTATCA
rule not met

Proceed to GAATACCC
rule not met

And the next one, GGATCGCC ?
rule not met

And then TGGATACA , what is it?
rule not met

Please do the same for CAATACCC as well.
rule not met

Okay, and GGGATACA ?
rule not met

Moving on to the next sequence: ACTATCTA
rule met
